target: human GIRK1/4 channels (Homo sapiens, UniProt P48544+P48549); construct: Full-length human GIRK1 cDNA was cloned from HuH cell- and HeLa cell-derived cDNA libraries; Full-length GIRK4 cDNA was amplified from a human heart cDNA library; expressed in transfected cells; host or cells: FLP-IN-CHO cells (Invitrogen); test: Measurement of human GIRK1/4 channel current by whole-cell patch clamp method (human GIRK1/4-expressing CHO cell line); type: cell-based; details: whole-cell patch clamp, human GIRK1/4-expressing CHO cells; step end current at −120 mV; test compound 0.1, 1, 10 μM; read-out: GIRK¼ IC50
Sequence (P48549 whole entry): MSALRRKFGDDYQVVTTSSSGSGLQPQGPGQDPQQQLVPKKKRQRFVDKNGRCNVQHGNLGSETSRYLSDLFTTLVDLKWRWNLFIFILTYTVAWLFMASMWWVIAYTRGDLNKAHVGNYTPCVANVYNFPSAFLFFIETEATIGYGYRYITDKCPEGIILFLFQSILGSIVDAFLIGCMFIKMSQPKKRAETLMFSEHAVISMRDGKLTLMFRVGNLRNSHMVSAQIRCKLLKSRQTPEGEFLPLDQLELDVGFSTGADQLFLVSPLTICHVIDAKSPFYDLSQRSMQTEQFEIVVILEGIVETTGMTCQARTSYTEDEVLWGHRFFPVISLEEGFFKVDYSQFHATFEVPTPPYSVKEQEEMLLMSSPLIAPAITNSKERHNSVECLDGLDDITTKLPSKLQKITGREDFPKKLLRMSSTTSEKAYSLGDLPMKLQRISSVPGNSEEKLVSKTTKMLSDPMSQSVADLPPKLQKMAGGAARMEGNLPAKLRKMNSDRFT
Sequence (P48544 whole entry): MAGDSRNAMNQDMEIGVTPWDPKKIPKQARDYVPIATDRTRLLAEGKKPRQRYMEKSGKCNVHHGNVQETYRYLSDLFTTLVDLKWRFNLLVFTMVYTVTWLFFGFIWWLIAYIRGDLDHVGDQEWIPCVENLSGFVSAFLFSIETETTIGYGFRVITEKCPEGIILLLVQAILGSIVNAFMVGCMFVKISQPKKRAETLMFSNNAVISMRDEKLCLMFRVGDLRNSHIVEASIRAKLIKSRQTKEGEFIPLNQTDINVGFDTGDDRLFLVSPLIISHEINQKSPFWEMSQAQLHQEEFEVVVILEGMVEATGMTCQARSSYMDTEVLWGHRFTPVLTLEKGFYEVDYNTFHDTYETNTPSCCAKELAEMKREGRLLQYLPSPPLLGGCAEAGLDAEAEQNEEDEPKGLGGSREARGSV
Counter-ions that a name gives are not always drawn.
Please go through the items and note down their IC50.
Your answer should be a number followed by the unit of measure.

CCN1C(=O)C(C)(C)C(=O)N(C)c2cc(OCCCN(CCc3cccnc3)Cc3ccccc3)ccc21 [Example 200] | 0.59 µM
CCN1C(=O)C(C)(C)C(=O)N(C)c2cc(OCCCN(CCn3ccc4occc4c3=O)Cc3ccc(C)nc3C)ccc21 [Example 629, dihydrochloride] | 0.17 µM
CCN1C(=O)C(C)(C)C(=O)N(C)c2cc(OCCCN(CCc3cccnc3)Cc3cccc(C#N)c3)ccc21 [Example 229] | 0.69 µM

We next turn to a different molecule, shown below.
Record CCN1C(=O)C(C)(C)C(=O)N(C)c2cc(OCCCN(CCn3ccc4ccoc4c3=O)Cc3ccc(C#N)cc3)ccc21 [Example 380] . Reported IC50: 0.49 µM
